Assay procedure: Solubility of the compound at pH 2
Type: physicochemical
Conditions: buffer
Measured parameter: solubility

solubility for CC[C@@](O)(c1cn(Cc2ccc3c(-c4ccc(F)cc4)cc(C(N)=O)nc3c2)nn1)C(F)(F)F is < 0.8 µM

* * *

Assay procedure: Oral bioavailability in rhesus monkey
Type: ADME, organism-based, Macaca mulatta
Conditions: in vivo
Measured parameter: bioavailability

bioavailability for NC(=O)c1cc(-c2ccc(F)cc2)c2ccc(CN3C(=O)CCC3=O)cc2n1 is > 99%

* * *

Assay procedure: Distribution coefficient, logD of compound
Format: physicochemical
Conditions: octanol/water
Measured parameter: logD
Numbers only.

logD for NC(=O)c1cc(-c2ccc(F)cc2)c2ccc(CN3C(=O)CCC3=O)cc2n1 is 2.1
